Assay: qHTS Screen of the MIPE 4.0 Collection Against Ewings Sarcoma (TC32) (AID 1259256); further: nearly all actives have a fitted effect of over 45% in size
Conditions: TC32 Ewing sarcoma viability, CellTiter-Glo, 48 h; series mostly up to 45.8 µM
Results filed as inconclusive are left out. Active and inactive are the calls of the source. The call rests on the fitted dose curve; in most records, active means well fitted inhibition curve with a large enough effect; inconclusive means small, poorly fitted or top-dose-only effect; inactive means no such curve, though single readings can be large or run the other way.
Assign a class; possible classes are active, inactive

Entry `C[C@@H]1[C@@H](C(=O)C[C@H]2O[C@@H]3O[C@]4(C)CC[C@@H]5[C@H](C)CC[C@@H]([C@H]2C)[C@@]35OO4)O[C@@H]2O[C@]3(C)CC[C@H]4[C@H](C)CC[C@@H]1[C@@]24OO3` : call = ?
active

Entry `CN(C)CCc1ccc(O)cc1` : call = ?
inactive

Entry `C#CCN(C)[C@H](C)Cc1ccccc1` : call = ?
inactive

Entry COc1ccc2c(c1OC)CN1CCc3cc4c(cc3C1C2)OCO4 (centres undefined) : call = ?
inactive

----------
Experiment: Cell Viability - NIH 3T3 (AID 541);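 further: cells exposed to compound for 40 hours; plate controls were DMSO alone for no effect and tamoxifen positive control for full effect; nearly all actives have a fitted effect of over 25% in size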
Settings: NIH 3T3 cell viability, qHTS; at 92.2 µM (top of the series)
Inconclusive results are not listed.
Could you mark each record Satisfied if its activity change, negative = cytotoxicity falls strictly under -20%, and Not satisfied if it equals or exceeds it?

OCCOc1ccccc1 | Not satisfied

Here's an entry: `CCOP(=S)(OCC)Oc1cc(C)nc(C(C)C)n1` . Is its activity change, negative = cytotoxicity below -20%?
Not satisfied

Here's an entry: `Oc1ccc(Cl)cc1Cc1ccccc1` . Is its activity change, negative = cytotoxicity below -20%?
Not satisfied

Here's an entry: `c1ccc2c(c1)Nc1ccccc1S2` . Is its activity change, negative = cytotoxicity below -20%?
Satisfied

Here's an entry: Clc1ccc(COC(Cn2ccnc2)c2ccc(Cl)cc2Cl)cc1 (stereo unspecified) . Is its activity change, negative = cytotoxicity below -20%?
Satisfied

Here's an entry: `Oc1ccccc1-c1ccccc1` . Is its activity change, negative = cytotoxicity below -20%?
Not satisfied

----------
Assay: Cell Viability - LYMP2-018 (AID 985);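 further: compound exposure lasted 24 hr at 37 °C; nearly all actives have a fitted effect of over 50% in size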
Settings: LYMP2-018 lymphoblastoid cells, viability (qHTS); series mostly up to 92.2 µM
Inconclusive results are not listed. Calls of active or inactive are those of the source. Calls follow the shape of the dose curve; as a rule, active = well fitted cell-killing curve with a large enough effect; inconclusive = small, poorly fitted or top-dose-only effect; inactive = flat fitted curve, though single readings scatter.
Assign a class; possible classes are active, inactive

Below are worked cases with known answers.
OCCOc1ccccc1 | inactive
CNCC(O)c1ccc(O)cc1 (configuration not stated) | inactive

Entry Clc1ccc(COC(Cn2ccnc2)c2ccc(Cl)cc2Cl)cc1 (configuration not stated) : call = ?
active

----------
Test: Cell Viability - LYMP2-008 (AID 980); further: nearly all actives have a fitted effect of over 60% in size
Settings: LYMP2-008 lymphoblastoid cell viability, qHTS; series mostly up to 92.2 µM
Results filed as inconclusive are left out. Calls of active or inactive are those of the source. Calls follow the shape of the dose curve; as a rule, active = well fitted cell-killing curve with a large enough effect; inconclusive = small, poorly fitted or top-dose-only effect; inactive = flat fitted curve, though single readings scatter.
Assign a class; possible classes are T for active, F for inactive

Clc1ccc(COC(Cn2ccnc2)c2ccc(Cl)cc2Cl)cc1 (stereo not given) | T

Entry `c1ccc2c(c1)Nc1ccccc1S2` : call = ?
F

Entry CCCC(C)(COC(N)=O)COC(=O)NC(C)C (stereo not given) : call = ?
F

Entry `Oc1ccccc1-c1ccccc1` : call = ?
F

Entry CC(COc1ccccc1)N(CCCl)Cc1ccccc1 (stereo not given) : call = ?
T

----------
System: astro
Experiment: Drug repurposing screens with cells derived from glioblastoma tumor samples (AID 1345199); further: nearly all actives have a fitted effect of over 40% in size
Settings: viability, ATP luminescence, 48 h; series mostly up to 45.9 µM
Inconclusive results are not listed. Calls of active or inactive are those of the source. The call rests on the fitted dose curve; in most records, active means well fitted inhibition curve with a large enough effect; inconclusive means small, poorly fitted or top-dose-only effect; inactive means flat fitted curve, though single readings scatter.
Assign a class; possible classes are T for active, F for inactive

Below are worked cases with known answers.
c1ccc2c(c1)Nc1ccccc1S2 | F
CN1C[C@H](CNC(=O)OCc2ccccc2)C[C@@H]2c3cccc4c3c(cn4C)C[C@H]21 | F
CCC(COC(=O)c1cc(OC)c(OC)c(OC)c1)(c1ccccc1)N(C)C (stereo not given) | F
CC(C)=CCOc1c2occc2cc2ccc(=O)oc12 | F
Clc1cccc(N2CCNCC2)c1 | F

Entry `C[C@H]1O[C@@H](O[C@H]2[C@@H](O)C[C@H](O[C@H]3[C@@H](O)C[C@H](O[C@H]4CC[C@@]5(C)[C@H](CC[C@@H]6[C@@H]5CC[C@]5(C)[C@@H](C7=CC(=O)OC7)CC[C@]65O)C4)O[C@@H]3C)O[C@@H]2C)C[C@H](O)[C@@H]1O` : call = ?
T

Entry Cc1ccc2c(c1)C1CN(C)CCC1N2 (stereo not given) : call = ?
F

Entry `O=C(O)c1ccc2[nH]cc(CCCCN3CC=C(c4ccccc4)CC3)c2c1` : call = ?
F

Entry CC(C)NCC(O)c1ccccc1Cl (stereo not given) : call = ?
F

Entry CC(C)(C)NCC(O)c1cc(Cl)c(N)c(Cl)c1 (stereo not given) : call = ?
F

----------
Assay: Quantitative High-Throughput drug screen in 47 multiple myeloma cell lines against the NCATS MIPE library collection: KMS20_JCRB cell viability assay (AID 1918973); further: nearly all actives have a fitted effect of over 45% in size
Settings: CellTiter-Glo ATP, 48 h; series mostly up to 45.8 µM
Inconclusive results are not listed. Calls of active or inactive are those of the source. Calls follow the shape of the dose curve; as a rule, active = well fitted cell-killing curve with a large enough effect; inconclusive = small, poorly fitted or top-dose-only effect, or effect the other way; inactive = no such curve, though single readings can be large or run the other way.
Assign a class; possible classes are active, inactive

Below are worked cases with known answers.
C#CCN(C)[C@H](C)Cc1ccccc1 | inactive
CC(O)(CS(=O)(=O)c1ccc(F)cc1)C(=O)Nc1ccc(C#N)c(C(F)(F)F)c1 (configuration not stated) | active
C[C@@H]1O[C@@H](O[C@H]2C[C@@H](O)[C@]3(CO)[C@H]4[C@H](O)C[C@]5(C)[C@@H](C6=CC(=O)OC6)CC[C@]5(O)[C@@H]4CC[C@]3(O)C2)[C@H](O)[C@H](O)[C@H]1O | active

Entry `C=C(C)[C@H]1Cc2c(ccc3c2O[C@@H]2COc4cc(OC)c(OC)cc4[C@@H]2C3=O)O1` : call = ?
active

Entry `Fc1ccc(C(OCCN2CCN(CCCc3ccccc3)CC2)c2ccc(F)cc2)cc1` : call = ?
active

Entry C[C@@H]1[C@@H](CC(C[C@H]2O[C@@H]3O[C@]4(C)CC[C@@H]5[C@H](C)CC[C@@H]([C@H]2C)[C@@]35OO4)C[S+](=O)([O-])c2ccc(COC(=O)N(C)C)cc2)O[C@@H]2O[C@]3(C)CC[C@H]4[C@H](C)CC[C@@H]1[C@@]24OO3 (some centres not stated) : call = ?
active

Entry `CC1=C2C[C@@H]3[C@@H](CC=C4C[C@@H](O)CC[C@@]43C)[C@@H]2CC[C@]12O[C@H]1C[C@H](C)CN[C@H]1[C@H]2C` : call = ?
active

----------
Test system: W2
Assay: qHTS profiling for inhibitors of Plasmodium falciparum proliferation (AID 504749); further: nearly all actives have a fitted effect of over 60% in size
Conditions: P. falciparum in erythrocytes, SYBR Green DNA, 72 h; series mostly up to 28.7 µM
Inconclusive results are not listed. Activity calls are given as the source filed them. Calls come from the whole dose curve; as a rule, active = well fitted inhibition curve with a large enough effect; inconclusive = small, poorly fitted or top-dose-only effect; inactive = flat fitted curve, though single readings scatter.
Assign a class; possible classes are 1 for active, -1 for inactive

Clc1cccc(N2CCNCC2)c1 | 1

Please look at the following compound next.
Entry `CCOP(=S)(OCC)Oc1cc(C)nc(C(C)C)n1` : call = ?
-1

----------
Test: qHTS for Inhibitors of the Functional Ribonucleoprotein Complex (vRNP) of Lassa (LASV) Arenavirus: Viability assay - alamar blue signal for LASV Primary Screen (AID 1347083); further: nearly all actives have a fitted effect of over 80% in size
Settings: cell viability, alamar blue fluorescence (LASV minigenome counter-screen); series mostly up to 57.5 µM
Records with an inconclusive call do not appear. Active and inactive are the calls of the source. Calls follow the shape of the full dose curve; tested in HEK293 reporter line.
Assign a class; possible classes are active, inactive

Below are worked cases with known answers.
O=c1c(O)c(-c2ccc(O)c(O)c2)oc2cc(O)cc(O)c12 | inactive
O=C(NCCN1CCOCC1)c1ccc(Cl)cc1 | inactive
CNCC[C@@H](Oc1ccccc1C)c1ccccc1 | inactive
N=c1nc(N2CCCCC2)cc(N)n1O | inactive
CC(C)=CC1C(C(=O)OCc2cccc(Oc3ccccc3)c2)C1(C)C (stereo unspecified) | inactive
COc1ccc(C(=O)c2c(C)n(CCN3CCOCC3)c3ccccc23)cc1 | inactive
Cc1ncc([N+](=O)[O-])n1CCO | inactive
CC1Cc2ccccc2N1NC(=O)c1ccc(Cl)c(S(N)(=O)=O)c1 (stereo unspecified) | inactive

Entry Cn1c(=O)c2c(ncn2CC(O)CO)n(C)c1=O (stereo unspecified) : call = ?
inactive

Entry `Cc1ccnc2c1NC(=O)c1cccnc1N2C1CC1` : call = ?
inactive

Entry `CC(C)(C)NC(=O)[C@@H]1CN(Cc2cccnc2)CCN1C[C@@H](O)C[C@@H](Cc1ccccc1)C(=O)N[C@H]1c2ccccc2C[C@H]1O` : call = ?
inactive

Entry `Cc1sc2c(c1C)C(c1ccc(Cl)cc1)=N[C@@H](CC(=O)OC(C)(C)C)c1nnc(C)n1-2` : call = ?
active

Entry CNCC(O)c1ccc(O)cc1 (stereo unspecified) : call = ?
inactive

Entry `Cc1ccc(S(=O)(=O)N[C@@H](CCCCN)C(=O)CCl)cc1` : call = ?
inactive

Entry COc1ccc2c(c1OC)CN1CCc3cc4c(cc3C1C2)OCO4 (stereo unspecified) : call = ?
inactive

Entry `CCN(CC)CCNC(=O)c1cc(Cl)c(N)cc1OC` : call = ?
inactive
